Consider the following compounds; for each one, report its melting point.

Look up melting point: `CN1C(=O)CC[C@]2(C)c3ccc(Sc4nc(-c5ccccc5)nc5ccccc45)cc3CC[C@@H]12`
185 to 193 °C

Look up melting point: `O=C(O)CCCCCCCCCCc1ccco1`
40 to 41 °C

Look up melting point: CC(=O)c1ccc(OCC(O)COc2ccc(C#N)cc2)cc1O (stereo not drawn)
162 to 163 °C

Look up melting point: `COC(=O)c1ccc(Cn2c(=O)c3cc(C(=O)NCc4ccc(OC)cc4)ccc3n(C)c2=O)cc1`
189 °C

Look up melting point: `C#CCN(C)C(=S)Nc1ccccc1CC(=O)OC`
83 to 84 °C

Look up melting point: `CNC(=O)c1cc2n(n1)-c1ccc(Cl)cc1C(c1ccccc1)=NC2`
170 to 172 °C

Look up melting point: `Cc1ccc(NC(=O)c2cccc(C(F)(F)F)c2)cc1-c1ccc2ncncc2c1`
155 to 156 °C

Look up melting point: `CCc1ccc(-c2ccc(C(=O)N[C@@H]3CCc4cccc(N5CCN(C)CC5)c4C3)cc2)cc1`
234 to 235 °C

Look up melting point: `Cc1cccc(C(=O)Nc2cc(-c3c(-c4ccc(F)c(C)c4)nc4cccnn34)ccn2)c1`
203 to 204 °C

Look up melting point: `CC(C)CNS(=O)(=O)c1ccc(N)c(C(=O)N2CCN(C)CC2)c1`
162 to 163 °C

Look up melting point: `CS(=O)(=O)c1ccc(-n2nc(C(F)(F)F)cc2-c2nc3c(F)cccc3s2)cc1`
208 to 209 °C

Look up melting point: `CCOC(=O)[C@H](C)Oc1ccc2cc(Br)ccc2c1`
72 to 74 °C

Look up melting point: `C#CCc1c(Cl)nc(N)nc1Cl`
211 to 212 °C

* * *

MEASUREMENT KIND: melting point

Look up melting point: `CC1(C)COC(=O)N1c1nc(-c2cccc(C#N)c2)cs1`
181 to 183 °C

Look up melting point: CCCc1c(OCC(O)COc2ccc3c(=O)cc(C=CC(=O)OCC)oc3c2CCC)ccc(C(C)=O)c1O (stereo not drawn)
125 to 127 °C

Look up melting point: OC(CCc1ccccc1)C(O)CCc1ccccc1 (stereo not drawn)
128 to 129 °C

* * *

MEASUREMENT KIND: melting point

Look up melting point: `FC(F)(F)c1cc2ncccc2cc1Cl`
137 to 139 °C

Look up melting point: `NC(=O)n1nc(-c2ccccc2)cc1N`
255 °C

Look up melting point: O=c1[nH]c2ccccc2n1CCCN1CCN(C(c2ccccc2)c2ccccn2)CC1 (stereo unspecified)
142 °C

Look up melting point: `CC(C)n1c(=O)sc2cc(N)ccc21`
146 to 148 °C

Look up melting point: `c1cnc2c(c1)NCCCC2`
70 to 71 °C

Look up melting point: Cc1ccc2c(c1)N(CC(=O)NC(C)(C)C)C(=O)C(Br)CC2c1ccccc1C (stereo unspecified)
219 to 221 °C

Look up melting point: Cc1cc(C)c(S(=O)(=O)NCC(O)(Cn2cncn2)c2ccc(Cl)cc2Cl)c(C)c1 (stereo unspecified)
171 to 172 °C

Look up melting point: CCc1cn(C2CC(O)C(CNC)O2)c(=O)[nH]c1=O (stereo unspecified)
145 to 147 °C

Look up melting point: `O=C(Nc1cccc(-c2ccnc3c(C(=O)c4cccs4)cnn23)c1)OCc1cccnc1`
> 200 °C

Look up melting point: `Fc1ccc(C(CN2CCOCC2)=C2SCCCS2)cc1`
104 to 106 °C

Look up melting point: CC(O)c1cccc(Cl)c1Cl (stereo unspecified)
53 °C

Look up melting point: `COc1cc(OC)nc(Oc2ccc3[nH]c(C)c(C=O)c3c2C(=O)OCc2ccccc2)n1`
148 to 149 °C

Look up melting point: `O=C(CP(=O)(O)O)NCc1ccccc1`
130 to 134 °C

Look up melting point: c1ccc(-c2ncc(-c3cnc(C4CCCNC4)[nH]3)cn2)cc1 (stereo unspecified)
140 °C

Look up melting point: `O=C(NCC1CCNCC1)c1ccccc1`
119 °C

Look up melting point: `CC(=O)C(=Cc1ccc(Br)s1)C(C)=O`
70 to 74 °C

Look up melting point: `N=C(Nc1cc(Cl)cc(NC(=O)/C=C/c2ccccc2Cl)c1)c1cccs1`
123 to 124 °C

Look up melting point: `CC(C)(CCC(C)(C)NCc1ccccc1O)NCc1ccccc1O`
111 to 112 °C

Look up melting point: `CC1(C)[C@@H](CS(=O)(=O)c2ccc(S(C)(=O)=O)cc2)CC[C@@]1(C)NCC(=O)N1CCC[C@H]1C#N`
162 to 166 °C

Look up melting point: `CCOC(=O)C1(c2ccccc2)CCN(C/C=C/C(C#N)(c2ccccc2)c2ccccc2)CC1`
100 to 102 °C

Look up melting point: COc1ccc(N2CCCn3c2nc2c(Cl)ccc(C(OCC(F)(F)F)C4CC4)c23)c(C)c1 (stereo unspecified)
157 to 158 °C
